Collected TL1A Binding Level (Early) values appear next to each entry.
# system_name: T1, human TL1A extracellular domain with N-terminal HIS and FLAG tag (human, UniProt O95150 72-251)
# T1 construct: the whole entry is named; also called TNFSF15
# T1 sequence: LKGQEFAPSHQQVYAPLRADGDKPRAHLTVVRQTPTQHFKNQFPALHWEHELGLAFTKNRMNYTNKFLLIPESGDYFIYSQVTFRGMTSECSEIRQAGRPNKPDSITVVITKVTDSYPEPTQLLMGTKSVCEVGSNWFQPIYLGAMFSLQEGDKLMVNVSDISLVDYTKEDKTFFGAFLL
# procedure_details: SPR Run 7, antibody on Protein A, TL1A 5 ug/mL, timepoint 44
outcome_measure: TL1A Binding Level (Early) (RU)

binder="320-537 (antibody, human IgG1, name in Kabat numbering, V domains shown, full-length human IgG1, lambda) VH: QVQLVQSGAEVKKPGASVKVSCKASGYTFTSYDINWVRQAPGQGLEWMGWLNPNSLNTGYAQKFQGRVTMTADRSTSTAYMELSSLRSEDTAVYYCAREVPETAAFEYWGQGTLVTVSS VL: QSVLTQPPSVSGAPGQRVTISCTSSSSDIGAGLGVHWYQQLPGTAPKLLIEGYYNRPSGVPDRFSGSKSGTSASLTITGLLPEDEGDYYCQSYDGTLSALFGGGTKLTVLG" result=133
binder="320-512 (antibody, human IgG1, name in Kabat numbering, V domains shown, full-length human IgG1, lambda) VH: QVQLVQSGAEVKKPGASVKVSCKASGYTFTSYDINWVRQAPGQGLEWMGWLNWNSGNTGYAQKFQGRVTMTADRSTSTAYMELSSLRSEDTAVYYCAREVPETAAFEYWGQGTLVTVSS VL: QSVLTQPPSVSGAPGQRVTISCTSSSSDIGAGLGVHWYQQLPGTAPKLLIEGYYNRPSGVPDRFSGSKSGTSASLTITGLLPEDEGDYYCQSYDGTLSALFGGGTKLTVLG" result=126
binder="320-569 (antibody, human IgG1, name in Kabat numbering, V domains shown, full-length human IgG1, lambda) VH: QVQLVQSGAEVKKPGASVKVSCKASGYTFTSYDINWVRQAPGQGLEWMGWLNPNSGNTGDAQKFQGRVTMTADRSTSTAYMELSSLRSEDTAVYYCAREVPETAAFEYWGQGTLVTVSS VL: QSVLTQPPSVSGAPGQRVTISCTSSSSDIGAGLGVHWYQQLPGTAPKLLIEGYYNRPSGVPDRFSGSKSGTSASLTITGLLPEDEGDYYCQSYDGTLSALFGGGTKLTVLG" result=79
binder="320-538 (antibody, human IgG1, name in Kabat numbering, V domains shown, full-length human IgG1, lambda) VH: QVQLVQSGAEVKKPGASVKVSCKASGYTFTSYDINWVRQAPGQGLEWMGWLNPNSWNTGYAQKFQGRVTMTADRSTSTAYMELSSLRSEDTAVYYCAREVPETAAFEYWGQGTLVTVSS VL: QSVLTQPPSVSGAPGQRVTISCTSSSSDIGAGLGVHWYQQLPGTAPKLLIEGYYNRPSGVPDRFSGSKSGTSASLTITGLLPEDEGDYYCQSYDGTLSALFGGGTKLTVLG" result=54

Numbers sourced from patent US20170081400A1.
